- assayed.target: SARS2 protease (Severe acute respiratory syndrome coronavirus 2)
- assay.remarks: SARS-CoV-2 protease inhibition assay (SARS2 FRET protease assay)
- Type: biochemical
- measurement.context: SARS-CoV-2 protease 25 nM, FRET, peptide substrate 1.3 μM, 30 minutes at 30° C., compounds 20 μM to 1.0 nM; read-out: IC50
pIC50: −log10 of the molar value.
experimental.endpoint: pIC50

1) CC(C)(C)OC(=O)N1CCC(OC(=O)N[C@@H](CC2CCCCC2)C(=O)N[C@H](C=O)CCC(=O)N2CCOc3ccccc3C2)CC1 [Compound C23] = < 3.70
2) CCOP(=O)(OCC)C(O)[C@H](CC(C)C(=O)N1CCOc2ccccc2C1)NC(=O)[C@H](CC1CCCCC1)NC(=O)OCc1cccc(Cl)c1 (some centres unmarked) [Compound C11] = < 3.70
3) CC(C)(c1cccc(Cl)c1)C(OC(=O)N[C@@H](Cc1ccccc1)C(=O)N[C@H](C=O)C[C@@H]1CCNC1=O)c1ccccc1 (some centres unmarked) [Compound C257] = < 4.70
4) CCOP(=O)(OCC)C(O)[C@H](CCC(=O)N1CCOc2ccccc2C1)NC(=O)[C@H](CC1CCCCC1)NC(=O)OC1CCN(C(=O)OC(C)(C)C)CC1 (some centres unmarked) [Compound C13] = < 3.70
5) CC1C[C@H](NC(=O)[C@H](CC2CCCCC2)NC(=O)OCc2cccc(Cl)c2)C(O)N(CCc2ccccc2)C1=O (some centres unmarked) [Compound C4] = < 3.70
6) CCCCCCCOC(=O)N[C@@H](CC1CCCCC1)C(=O)N[C@@H](CCC(=O)N1CCOc2ccccc2C1)C(O)P(=O)(OCC)OCC (some centres unmarked) [Compound C14] = < 3.70
7) CC(C)(c1cccc(Cl)c1)C(OC(=O)N[C@@H](CC1CCCCC1)C(=O)N[C@@H](C[C@@H]1CCNC1=O)C(=O)C(=O)N1CCCC1)c1ccc2ccccc2c1 (some centres unmarked) [Compound C150] = < 4.70
8) O=C(N[C@@H](CC1CCCCC1)C(=O)NC(CC1CC2(CCCCC2)NC1=O)C(=O)C(=O)NC1CC1)OC(Cc1cccc(Cl)c1)c1ccccc1 (some centres unmarked) [Compound C153] = < 4.70

###

Reported pIC50 values are given for each entry in this list.
- assayed.target: UniProt P0DTD1
- assay.remarks: SARS-CoV-2 protease inhibition assay (SARS2 FRET protease assay)
- Assay type: biochemical
- measurement.context: SARS-CoV-2 protease 25 nM, FRET, peptide substrate 1.3 μM, 30 minutes at 30° C., compounds 20 μM to 1.0 nM; read-out: IC50
pIC50: −log10 of the molar value.
experimental.endpoint: pIC50

1. CC1(C)CC(CC(NC(=O)[C@H](CC2CCCCC2)NC(=O)OCc2cccc(Cl)c2)C(=O)C(=O)NC2CC2)C(=O)N1 (stereo partly drawn) = 5.76
2. O=C(N[C@@H](CC1CCCCC1)C(=O)N[C@@H](C[C@@H]1CCNC1=O)C(=O)C(=O)NC1CC1)OCc1cccc(Cl)c1 [Compound C173] = 5.84
3. O=C(N[C@@H](CC1CCCCC1)C(=O)NC(CC1CC2(CCOCC2)NC1=O)C(=O)C(=O)NC1CC1)OCc1cccc(Cl)c1 (stereo partly drawn) = 5.80
4. CN(C)C(=O)CC[C@@H](C=O)NC(=O)C(CC(C)(C)C)NC(=O)OCc1cccc(Cl)c1 (stereo partly drawn) = 5.42
5. COc1cccc2[nH]c(C(=O)N[C@@H](CC(C)C)C(=O)NC(C=O)CC3CC4(CCCCC4)NC3=O)cc12 (stereo partly drawn) = 7.96

All values here come from patent US20230159453A1.
